- Tested on: BT-549 breast
- PROTOCOL DESCRIPTION: NCI tumour cell line growth inhibition, 48 h
MEASURED PARAMETER: TGI (µM)
Provide the reading as a plain figure in µM.

These solved cases illustrate the format of a correct answer.
COMPOUND	TGI / µM
N#CC1=C(N)Oc2c(ccc3ccccc23)C1c1cccs1 (stereo unspecified)	3.09
O=C(N/N=C/c1c(Cl)cccc1Cl)c1cccnc1Nc1cccc(C(F)(F)F)c1	55.5

## Input I'd like to know its TGI. The compound in question is O=C(Nc1ccc2ncccc2c1)c1cc2c(cc1Cl)Sc1nccn1S2(=O)=O
## Output 41.2

====

- Tested on: NCI-H226 lung
- PROTOCOL DESCRIPTION: NCI tumour cell line growth inhibition, 48 h; in the data active means GI50 below about 0.43 µM; inactive means the rest
# output must be one of active, inactive

1) COc1cc(-c2csc(NC(=O)Nc3ccc(Cl)c(C(F)(F)F)c3)n2)cc(OC)c1OC inactive

## Input Call for entry Cc1ccc(Cl)cc1-c1nc(N)nc(Nc2ccc(Br)cc2)n1 :
## Output inactive

## Input Call for entry COc1ccc2nc3ccccc3c(NCc3ccc(Cl)cc3)c2c1 :
## Output inactive

## Input Call for entry CN(C)CCCn1c2c(c3ccc(-c4ccn[nH]4)cc3c1=O)C(=O)c1ccccc1-2 :
## Output active

====

- Test system: OVCAR-8 ovarian
- PROTOCOL DESCRIPTION: NCI tumour cell line growth inhibition, 48 h
MEASURED PARAMETER: GI50

These solved cases illustrate the format of a correct answer.
COMPOUND	GI50
O=CN/N=C/c1ccc(Cl)c([N+](=O)[O-])c1	0.567 µM
CCOC(=O)c1nnn(-c2no[n+]([O-])c2-c2ccc(OC)cc2)c1COc1cccc2cccnc12	2.23 µM
Cc1cc(Nc2ccc3c(c2)OCO3)c2cc3c(cc2n1)OCO3	3.13 µM

## Input I'd like to know its GI50. The compound in question is O=Cc1cn(Cc2ccc(Cl)cc2)c2ccccc12
## Output 23.5 µM

## Input I'd like to know its GI50. The compound in question is CC(C)C[C@H](NC(=O)Cn1ccc(Nc2ccccc2)cc1=O)B(O)O
## Output 5.47 µM

## Input I'd like to know its GI50. The compound in question is C[CH2][Pb]([CH2]C)([CH2]C)[O]C(=O)COc1ccccc1
## Output 1.76 µM

## Input I'd like to know its GI50. The compound in question is CCCN(CCC)c1ccc(CO)c(Cl)c1
## Output 34.9 µM

## Input I'd like to know its GI50. The compound in question is C=C1C(=O)O[C@H]2[C@H]1CC/C(COC(=O)CCSSCCC(=O)OC/C1=C/CC[C@@]3(C)O[C@H]3[C@H]3OC(=O)C(=C)[C@@H]3CC1)=C\CC[C@@]1(C)O[C@@H]21
## Output 1.26 µM

## Input I'd like to know its GI50. The compound in question is C[C@]12CCC(=O)CC1CC[C@@H]1C2CC[C@@]2(C)C1CC[C@@H]2OC(=O)CC[Se][Se]CCC(=O)O[C@H]1CCC2[C@@H]3CCC4CC(=O)CC[C@]4(C)C3CC[C@@]21C (some centres undefined)
## Output 3.06 µM

## Input I'd like to know its GI50. The compound in question is CN(C)CCCn1c2c(c3ccc(-c4ccn[nH]4)cc3c1=O)C(=O)c1ccccc1-2
## Output 0.163 µM

## Input I'd like to know its GI50. The compound in question is Oc1cccc(-c2nc(-c3n[nH]c(=S)n3-c3ccccc3)cc3c2[nH]c2ccccc23)c1
## Output 3.09 µM

## Input I'd like to know its GI50. The compound in question is O=C(N/N=C/c1c(Cl)cccc1Cl)c1cccnc1Nc1cccc(C(F)(F)F)c1
## Output 3.49 µM

## Input I'd like to know its GI50. The compound in question is COC(=O)C1=CN(CC2=CC(=O)C(C)=CC2=O)C=C(C(=O)OC)C1c1cc(OC)ccc1OC
## Output 12.9 µM

## Input I'd like to know its GI50. The compound in question is O=c1cc(NCC(O)CN2CCOCC2)n(Cc2ccccc2)c(=O)n1Cc1ccccc1 (centres undefined)
## Output 72.8 µM

## Input I'd like to know its GI50. The compound in question is C=CC(=O)N1C[C@H](COc2nc(Nc3cnn(C)c3)nc3[nH]cc(Cl)c23)[C@@H](OC)C1
## Output 4.74 µM

## Input I'd like to know its GI50. The compound in question is ClCCn1cnc2c(SCc3ccccc3Cl)ncnc21
## Output 0.576 µM

## Input I'd like to know its GI50. The compound in question is CC(=O)OC1Oc2ccccc2-c2oc(=O)c(-c3ccc(F)cc3)cc21 (centres undefined)
## Output 36.3 µM

## Input I'd like to know its GI50. The compound in question is CC(=O)N1CCC(Nc2cc(C(=O)NC[C@H](O)CN3CCc4ccccc4C3)ncn2)CC1
## Output > 100 µM

## Input I'd like to know its GI50. The compound in question is O=[N+]([O-])c1ccc2c(c1)C(=NO)c1cc([N+](=O)[O-])ccc1-2
## Output 74.7 µM

====

- System: HOP-62 NSCLC
- PROTOCOL DESCRIPTION: NCI tumour cell line growth inhibition, 48 h; in the data active = GI50 below about 0.43 µM; inactive = the rest
# output must be one of active, inactive

COMPOUND	LABEL CLASS
Oc1cccc(-c2nc(-c3n[nH]c(=S)n3-c3ccccc3)cc3c2[nH]c2ccccc23)c1	inactive
C(=C1c2ccccc2-c2ccccc21)c1ccncc1	inactive
O=C(Nc1ccc([As]=[As]c2ccc(NC(=O)c3ccccc3)cc2)cc1)c1ccccc1 (stereo not given)	inactive
NCCN.O=C([O-])C(=O)[O-].O=C([O-])C(=O)[O-].[Co+3].[K+]	inactive
Cc1cc(C2CC(O)C(CO)O2)c(Cl)cc1Cl (stereo not given)	inactive

## Input Call for entry COc1ccc2nc3cccc([N+](=O)[O-])c3c(NCCNCCO)c2c1 :
## Output active

## Input Call for entry CC(C)C[C@H](NC(=O)Cn1ccc(Nc2ccccc2)cc1=O)B(O)O :
## Output inactive

====

- Test system: KM20L2 colon
- PROTOCOL DESCRIPTION: NCI tumour cell line growth inhibition, 48 h
MEASURED PARAMETER: TGI (µM)
Provide the reading as a plain figure in µM.

MOLECULE	TGI [µM]
COc1ccc(OC)c2[nH]c(Sc3c([N+](=O)[O-])ncn3C)nc12	60.6

# context switch: different molecule, same TGI
## Input GET /values?readout=TGI&system=KM20L2 colon&item= CCOC(=O)C1=C(OC(OCC)C(C)[Se]c2ccccc2)CCC1 (stereo not given)
## Output 74.2

====

- Test system: UACC-62 melanoma
- PROTOCOL DESCRIPTION: NCI tumour cell line growth inhibition, 48 h
Label scheme for TGI: lower than 30 µM is NO, 30 µM and above is YES.

Reference set, count: 6
COMPOUND	LABEL CLASS
CCCc1[nH]nc(C(N)=O)c1N=NN(C)C	YES
COc1ccc2nc3ccccc3c(NCc3ccc(Cl)cc3)c2c1	NO
COc1cc2ccc1NC(=O)N1CCN(CC1)C(=O)Nc1ccc(cc1OC)-c1ccc(c(OC)c1)NC(=O)N1CCN(CC1)C(=O)Nc1ccc-2cc1OC	YES
Cc1cc([N+](=O)[O-])ccc1Sc1c2ccccc2nc2ccccc12	YES
CC1CC(=O)C2CC(CO)=CCCC2C1(C)CC/C(=C/CO)CO (stereo not given)	YES
COc1cc2c[n+](C)c3c4cc(OC)c(OC)cc4c(OCc4ccccc4)cc3c2cc1OC	NO

## Input Textbook exercise: given the entry N#CC1=C(N)Oc2c(ccc3ccccc23)C1c1cccs1 (stereo not given) , state whether its TGI is greater than or equal to 30 µM.
## Output NO

## Input Textbook exercise: given the entry CCOC(=O)/C=C\c1c(Cl)n(-c2ccccc2)c(=O)n(-c2ccccc2)c1=O , state whether its TGI is greater than or equal to 30 µM.
## Output YES

## Input Textbook exercise: given the entry O=C(CCc1ccc(O)c(O)c1)NCCc1cc(O)cc(OCc2ccccc2)c1 , state whether its TGI is greater than or equal to 30 µM.
## Output YES

====

- Tested on: OVCAR-3 ovarian
- PROTOCOL DESCRIPTION: NCI tumour cell line growth inhibition, 48 h; in the data active = GI50 below about 0.43 µM; inactive = the rest
# output must be one of 1.0 = active, 0.0 = inactive

COMPOUND	LABEL CLASS
COC(=O)C1=CN(CC2=CC(=O)C(C)=CC2=O)C=C(C(=O)OC)C1c1cc(OC)ccc1OC	0.0

## Input Call for entry CC(C)C[C@H](NC(=O)Cn1ccc(Nc2ccccc2)cc1=O)B(O)O :
## Output 0.0

## Input Call for entry Cc1ccc(Cl)cc1-c1nc(N)nc(Nc2ccc(Br)cc2)n1 :
## Output 1.0

## Input Call for entry OCc1ccc(N(Cc2ccc(F)cc2)CC2CC2)cc1Cl :
## Output 0.0

## Input Call for entry CC(C)=CC(=O)OC1C(CO)OC(Oc2cc(O)c3c(=O)cc(-c4ccc(O)c(O)c4)oc3c2)C(OC2OC(C)C(O)C(O)C2O)C1O (centres undefined) :
## Output 0.0

## Input Call for entry N#CC1=C(N)Oc2c(ccc3ccccc23)C1c1cccs1 (centres undefined) :
## Output 1.0

## Input Call for entry O=S(=O)(Nc1ccc(Cl)cc1)c1ccc(-c2cnc(C3CC3)o2)cc1 :
## Output 1.0

These measurements were taken from PubChem BioAssay (NCI).
